Biological target: B-Raf (Homo sapiens, UniProt P15056)
Sequence (P15056 whole entry, species assumed): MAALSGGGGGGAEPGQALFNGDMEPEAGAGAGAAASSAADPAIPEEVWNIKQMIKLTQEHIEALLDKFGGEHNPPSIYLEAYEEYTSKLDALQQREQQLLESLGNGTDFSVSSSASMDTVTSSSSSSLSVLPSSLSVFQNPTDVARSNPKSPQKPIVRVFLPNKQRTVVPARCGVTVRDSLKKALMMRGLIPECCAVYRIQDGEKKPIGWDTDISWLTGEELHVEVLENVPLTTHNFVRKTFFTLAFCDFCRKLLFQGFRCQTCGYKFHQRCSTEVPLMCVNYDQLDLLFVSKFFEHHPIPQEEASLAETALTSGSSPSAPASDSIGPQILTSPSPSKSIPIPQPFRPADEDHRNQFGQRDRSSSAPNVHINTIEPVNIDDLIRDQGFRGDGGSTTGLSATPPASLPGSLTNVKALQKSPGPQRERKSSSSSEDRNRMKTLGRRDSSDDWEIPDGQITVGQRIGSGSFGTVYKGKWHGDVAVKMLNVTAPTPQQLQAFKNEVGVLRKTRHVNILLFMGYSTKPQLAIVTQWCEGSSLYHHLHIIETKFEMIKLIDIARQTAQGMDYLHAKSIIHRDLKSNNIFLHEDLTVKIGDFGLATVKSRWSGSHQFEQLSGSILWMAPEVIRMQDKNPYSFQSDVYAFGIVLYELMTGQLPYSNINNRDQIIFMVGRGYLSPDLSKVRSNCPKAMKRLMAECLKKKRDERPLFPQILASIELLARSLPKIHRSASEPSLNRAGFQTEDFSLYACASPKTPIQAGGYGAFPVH
ENDPOINT: IC50

Looking for the measured IC50 of O=C(Nc1ccc(-c2ccc3c(=O)[nH]cnc3c2)cc1)Nc1ccc(F)c(F)c1 , can you help?
> 500 nM

----------
Biological target: FGFR-1 (Homo sapiens)
Sequence (P11362 22-822, species assumed): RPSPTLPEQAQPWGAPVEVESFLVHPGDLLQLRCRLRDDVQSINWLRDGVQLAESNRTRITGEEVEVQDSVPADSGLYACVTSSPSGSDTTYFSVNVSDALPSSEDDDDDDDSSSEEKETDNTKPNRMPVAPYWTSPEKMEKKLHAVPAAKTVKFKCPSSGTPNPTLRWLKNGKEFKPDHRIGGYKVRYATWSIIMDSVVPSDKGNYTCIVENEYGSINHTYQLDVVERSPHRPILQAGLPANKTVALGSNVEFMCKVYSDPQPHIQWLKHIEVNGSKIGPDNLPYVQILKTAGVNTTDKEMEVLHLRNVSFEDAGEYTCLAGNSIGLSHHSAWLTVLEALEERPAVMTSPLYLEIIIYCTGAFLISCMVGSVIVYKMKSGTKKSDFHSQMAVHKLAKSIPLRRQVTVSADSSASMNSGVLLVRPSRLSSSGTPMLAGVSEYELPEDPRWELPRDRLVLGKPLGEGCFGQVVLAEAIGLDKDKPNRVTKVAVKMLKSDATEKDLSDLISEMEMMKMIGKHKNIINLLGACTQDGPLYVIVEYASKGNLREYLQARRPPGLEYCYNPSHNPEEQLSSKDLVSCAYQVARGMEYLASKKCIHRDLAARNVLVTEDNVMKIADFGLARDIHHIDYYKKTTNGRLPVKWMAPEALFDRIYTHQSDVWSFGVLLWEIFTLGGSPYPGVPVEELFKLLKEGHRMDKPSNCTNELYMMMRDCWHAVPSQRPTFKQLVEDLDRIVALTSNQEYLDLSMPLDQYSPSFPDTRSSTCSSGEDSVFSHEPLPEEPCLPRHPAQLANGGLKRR
ENDPOINT: pIC50
The meaning of pIC50 here: minus log10 of the concentration in molar units.

For FGFR-1 (Homo sapiens), provide pIC50 of O=C(Nc1ccc(-c2ccc3c(=O)[nH]cnc3c2)cc1)Nc1ccccc1F please.
6.78

----------
Target: VEGFR-2 (Homo sapiens, UniProt P35968)
Sequence (P35968 20-1356): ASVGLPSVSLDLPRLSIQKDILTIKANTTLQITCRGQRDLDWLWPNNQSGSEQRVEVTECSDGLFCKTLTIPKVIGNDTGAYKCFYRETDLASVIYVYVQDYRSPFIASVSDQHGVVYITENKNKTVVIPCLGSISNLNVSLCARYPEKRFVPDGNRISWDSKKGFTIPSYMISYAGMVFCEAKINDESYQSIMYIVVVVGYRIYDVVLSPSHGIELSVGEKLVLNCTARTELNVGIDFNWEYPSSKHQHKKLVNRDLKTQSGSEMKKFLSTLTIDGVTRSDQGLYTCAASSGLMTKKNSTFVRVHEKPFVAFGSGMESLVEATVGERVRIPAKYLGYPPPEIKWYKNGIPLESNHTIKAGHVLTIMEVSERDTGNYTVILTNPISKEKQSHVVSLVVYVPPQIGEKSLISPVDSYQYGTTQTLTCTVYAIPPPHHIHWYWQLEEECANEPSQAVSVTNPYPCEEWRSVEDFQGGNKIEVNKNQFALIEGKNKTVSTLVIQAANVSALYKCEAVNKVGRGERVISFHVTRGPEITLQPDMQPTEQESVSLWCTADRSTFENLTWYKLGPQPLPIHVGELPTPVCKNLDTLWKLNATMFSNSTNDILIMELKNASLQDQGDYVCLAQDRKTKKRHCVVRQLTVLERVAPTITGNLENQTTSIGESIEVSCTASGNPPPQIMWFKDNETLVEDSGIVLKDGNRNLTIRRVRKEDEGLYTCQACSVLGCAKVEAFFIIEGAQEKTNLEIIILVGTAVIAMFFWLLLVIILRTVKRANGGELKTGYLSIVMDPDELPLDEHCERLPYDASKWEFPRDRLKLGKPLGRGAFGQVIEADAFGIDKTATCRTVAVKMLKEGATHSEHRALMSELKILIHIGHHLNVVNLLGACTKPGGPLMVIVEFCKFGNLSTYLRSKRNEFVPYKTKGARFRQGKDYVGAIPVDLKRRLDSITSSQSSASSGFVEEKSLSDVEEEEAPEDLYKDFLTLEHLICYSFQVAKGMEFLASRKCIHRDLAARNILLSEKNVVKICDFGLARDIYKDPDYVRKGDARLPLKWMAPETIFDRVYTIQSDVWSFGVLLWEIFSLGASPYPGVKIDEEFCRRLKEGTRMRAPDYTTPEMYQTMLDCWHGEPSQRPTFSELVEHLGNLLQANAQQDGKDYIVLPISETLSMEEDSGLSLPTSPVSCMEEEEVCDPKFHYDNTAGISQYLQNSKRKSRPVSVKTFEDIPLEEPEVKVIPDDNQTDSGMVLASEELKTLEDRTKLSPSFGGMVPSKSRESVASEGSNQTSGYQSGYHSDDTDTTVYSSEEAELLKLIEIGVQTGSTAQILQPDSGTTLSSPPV
ENDPOINT: pIC50
The meaning of pIC50 here: minus log10 of the concentration in molar units.

Look over these answered cases.
SMILES TEXT: O=C(Nc1ccc(F)cc1)Nc1ccc(-c2ccc3c(=O)[nH]cnc3c2)cc1
pIC50: 8.20
//
SMILES TEXT: O=C(Nc1ccc(-c2ccc3c(=O)[nH]cnc3c2)cc1)Nc1ccc(F)c(F)c1
pIC50: 9.11
//
SMILES TEXT: O=C(Nc1ccc(-c2ccc3c(=O)[nH]cnc3c2)cc1)Nc1ccccc1F
pIC50: 8.72

Looking for the measured pIC50 of O=C(Nc1ccc(-c2ccc3c(=O)[nH]cnc3c2)cc1)Nc1cccc(C(F)(F)F)c1 , can you help?
6.71

Same for S=C(Nc1ccc(-c2cccnc2)cc1)Nc1ccc2c(c1)OCO2
7.69

Same for FC(F)(F)c1cc(Br)cc(NC(=S)Nc2ccc(-c3cccnc3)cc2)c1
7.69
